Where do these numbers come from? They come from patent US20240343803A1.

Reported EC50 values are given for each entry in this list.
# test-system: T1, Fusion protein of extracellular domain of cynomolgus monkey TIGIT and mouse IgG2a Fc fragment (cynomolgus … (cynomolgus monkey))
# T1 construct: The entry includes the signal peptide (limits not recoverable) and the mouse IgG2a Fc
# T1 sequence (chain, as listed by the source limits assumed): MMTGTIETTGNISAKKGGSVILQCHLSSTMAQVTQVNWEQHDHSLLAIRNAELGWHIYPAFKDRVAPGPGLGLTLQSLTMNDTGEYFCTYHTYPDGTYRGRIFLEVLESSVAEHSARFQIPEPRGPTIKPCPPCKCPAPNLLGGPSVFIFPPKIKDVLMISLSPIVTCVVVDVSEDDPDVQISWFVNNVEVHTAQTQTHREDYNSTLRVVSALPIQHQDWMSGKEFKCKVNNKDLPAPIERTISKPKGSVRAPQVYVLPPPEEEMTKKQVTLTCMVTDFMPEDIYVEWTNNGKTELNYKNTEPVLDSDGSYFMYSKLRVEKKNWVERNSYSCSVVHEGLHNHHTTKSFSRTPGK
# assay-explanation: ELISA, cynomolgus monkey TIGIT ECD-mFc
// return the numeric value with its unit appended

Please review the following examples before continuing.
[[record]]
binder = "TIGIT-002-H1L3 (antibody, V domains shown, Humanized anti-TIGIT antibody) VH: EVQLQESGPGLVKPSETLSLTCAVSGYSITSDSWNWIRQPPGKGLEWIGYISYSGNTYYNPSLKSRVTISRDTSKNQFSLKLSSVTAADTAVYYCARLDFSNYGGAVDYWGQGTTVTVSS VL: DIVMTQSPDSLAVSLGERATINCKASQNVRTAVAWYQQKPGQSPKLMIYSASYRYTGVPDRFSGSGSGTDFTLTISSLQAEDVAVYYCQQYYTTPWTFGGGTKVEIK"
measured_property = "EC50"
result = "0.0511 nM"

[[record]]
binder = "TIGIT-005-H2L1b (antibody, V domains shown, Humanized anti-TIGIT antibody with NG-site mutation in VL) VH: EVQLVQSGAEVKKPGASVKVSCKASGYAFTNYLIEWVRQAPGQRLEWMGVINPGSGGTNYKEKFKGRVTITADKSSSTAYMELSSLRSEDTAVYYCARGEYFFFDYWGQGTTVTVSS VL: DIVMTQSPDSLAVSLGERATINCKASQHVSTGVAWYQHKPGQSPKLLIYSASYRYTGVPDRFSGSGSGTDFTLTISSLQAEDVAVYYCQQHYNTPHTFGGGTKVEIK"
measured_property = "EC50"
result = "0.032 nM"


Entry under review: TIGIT-CHI-005 (antibody, V domains shown, Human-mouse chimeric antibody) VH: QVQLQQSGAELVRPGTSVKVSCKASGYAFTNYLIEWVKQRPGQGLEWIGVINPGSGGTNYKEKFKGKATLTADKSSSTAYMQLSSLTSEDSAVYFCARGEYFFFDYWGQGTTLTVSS VL: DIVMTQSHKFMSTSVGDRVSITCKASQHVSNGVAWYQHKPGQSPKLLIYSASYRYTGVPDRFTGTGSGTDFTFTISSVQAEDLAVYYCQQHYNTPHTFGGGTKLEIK . Reported EC50?
0.0165 nM

And the next one, TIGIT-070-H3L2 (antibody, V domains shown, Humanized anti-TIGIT antibody) VH: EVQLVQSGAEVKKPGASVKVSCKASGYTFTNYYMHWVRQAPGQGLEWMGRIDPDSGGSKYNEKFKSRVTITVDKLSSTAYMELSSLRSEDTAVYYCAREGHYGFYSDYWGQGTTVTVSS VL: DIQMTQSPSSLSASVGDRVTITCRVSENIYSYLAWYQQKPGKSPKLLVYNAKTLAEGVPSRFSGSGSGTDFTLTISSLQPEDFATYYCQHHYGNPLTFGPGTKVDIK ?
0.0157 nM
